Listing of recorded T/C by entry.
Tested on: BDF1 mice, B16 melanoma ip, median survival T/C
protocol-description: NCI In Vivo Anticancer Drug Screen. Data for tumor model B16 Melanoma (intraperitoneal) in B6D2F1 (BDF1) mice
conditions: endpoint: median survival time; dose: 200.0 mg/kg/injection; schedule: Q04DX003 (ip); vehicle: saline with Tween-80; higher = longer survival
Toxic doses and inconclusive results are not listed.

Some solved entries appear below for comparison.
{"compound": "c1cc2n(n1)CCN2", "assay-endpoint": "T/C", "measured-value": "108 % of control"}
{"compound": "O=[N+]([O-])c1ccc(NCCO)c([N+](=O)[O-])c1", "assay-endpoint": "T/C", "measured-value": "89 % of control"}
{"compound": "COc1cc2c(cc1OC)C(c1ccc(O)c(O)c1)CNC2 (stereo unspecified)", "assay-endpoint": "T/C", "measured-value": "90 % of control"}
{"compound": "CC(C)=Cc1ccccc1", "assay-endpoint": "T/C", "measured-value": "93 % of control"}

Supply reported T/C belonging to this compound: `CCc1occ(C(=O)OC)c1C(=O)OC`
97 % of control

Complete the entry with T/C for `S=P(NCCS)(N1CC1)N1CC1`
97 % of control

* * *

Tested on: BDF1 mice, B16 melanoma ip, median survival T/C
protocol-description: NCI In Vivo Anticancer Drug Screen. Data for tumor model B16 Melanoma (intraperitoneal) in B6D2F1 (BDF1) mice
conditions: endpoint: median survival time; dose: 0.5 mg/kg/injection; schedule: Q01DX009 (ip); vehicle: saline with Tween-80
Inconclusive results and toxic doses are left out. How the source made its calls: active means survival T/C of 150% or more; inactive means T/C below 125% in these data.
Outcomes you can answer with include only these: active, inactive

Study these solved cases before continuing.
{"molecule": "CC1Cc2c(Cl)cc(C(=O)NC(Cc3ccccc3)C(=O)O)c(O)c2C(=O)O1 (stereo unspecified)", "class-label": "inactive"}
{"molecule": "O=C1c2ccccc2C(=O)c2c(NCCNCCO)ccc(NCCNCCO)c21", "class-label": "inactive"}
{"molecule": "COC1=C2C[C@@H](C)C[C@@H](OC)[C@@H](O)[C@H](C)/C=C(\\C)[C@@H](OC(N)=O)[C@H](OC)/C=C\\C=C(/C)C(=O)NC(=CC1=O)C2=O", "class-label": "inactive"}
{"molecule": "COc1ccc(CC2C(=O)NC(C)C(=O)N(C)C3Cc4ccc(cc4)Oc4cc(ccc4O)CC(C(=O)NC(C)C(=O)NC(C)C(=O)N2C)N(C)C3=O)cc1 (stereo unspecified)", "class-label": "inactive"}
{"molecule": "CCCCCCCC(=O)OCC(=O)[C@]1(O)Cc2c(O)c3c(c(O)c2[C@@H](OC2CC(N)C(O)C(C)O2)C1)C(=O)c1c(OC)cccc1C3=O (stereo partly specified)", "class-label": "active"}

Shifting focus to the molecule that follows.
Test call for this molecule, please: `CC(=O)[S][Pb]([c]1ccccc1)([c]1ccccc1)[c]1ccccc1`
inactive

* * *

# reported T/C; entries follow
System: BDF1 mice, B16 melanoma ip, median survival T/C
protocol-description: NCI In Vivo Anticancer Drug Screen. Data for tumor model B16 Melanoma (intraperitoneal) in B6D2F1 (BDF1) mice
conditions: endpoint: median survival time; dose: 50.0 mg/kg/injection; schedule: Q01DX009 (ip); vehicle: saline with Tween-80; higher = longer survival
Experimental: The antitumor activity of compounds was measured in mice bearing transplantable tumors. Survival or tumor size were measured and the results are expressed as the measurement made in the treated group (T) divided by the measurement made in the vehicle treated control group (C). The tumor model used in this assay is B16 Melanoma (intraperitoneal) in B6D2F1 (BDF1) mice
Inconclusive results and toxic doses are left out.

{"compound": "O=C(NCCCCC(NC(=O)c1ccccc1)C(=O)O)OCc1ccccc1 (stereo not drawn)", "assay-endpoint": "T/C", "measured-value": "101 % of control"}
{"compound": "Cc1ccc(S(=O)(=O)NC(=S)S)cc1", "assay-endpoint": "T/C", "measured-value": "97 % of control"}
{"compound": "CSCCC(NC(=O)CN(C)C(=O)OCc1ccccc1)C(=O)O (stereo not drawn)", "assay-endpoint": "T/C", "measured-value": "100 % of control"}

Quickly give me recorded T/C for `c1ccc(CCN2CCC(CCc3c[nH]c4ccccc34)CC2)cc1`
94 % of control

Specify reported T/C for the compound shown: `C1#CCCCCCC#CCCCC1`
100 % of control

For the compound OC1CCCC2CCCNC12 (stereo not drawn) (tested in a mixture with another compound) , report T/C.
95 % of control

# return recorded T/C for input `C/C=C/c1cc2c(c(=O)o1)C(=O)[C@@H](O)[C@H](C)O2`
95 % of control

For the compound CC(C)(C)OC(=O)NC(CCC(=O)OCc1ccccc1)C(=O)ON1C(=O)CCC1=O (stereo not drawn) , give its measured T/C value.
95 % of control

Give me measured T/C, please, for this compound: `CC(=O)Oc1c(Br)cc(Br)cc1-c1ccccc1`
98 % of control

Give T/C for `ClC1CC[N-]CC1.ClC1CC[N-]CC1.O=C(O)CC(=O)O.[Pt+2]`
96 % of control
